# Measurement Target: PD-L1 on CHO cell line highly expressing PD-L1 (PD-1/PD-L1 blockade bioassay kit, promega J1250) (UniProt Q9NZQ7 19-290, limits assumed)
# Sequence (Q9NZQ7 19-290 limits assumed): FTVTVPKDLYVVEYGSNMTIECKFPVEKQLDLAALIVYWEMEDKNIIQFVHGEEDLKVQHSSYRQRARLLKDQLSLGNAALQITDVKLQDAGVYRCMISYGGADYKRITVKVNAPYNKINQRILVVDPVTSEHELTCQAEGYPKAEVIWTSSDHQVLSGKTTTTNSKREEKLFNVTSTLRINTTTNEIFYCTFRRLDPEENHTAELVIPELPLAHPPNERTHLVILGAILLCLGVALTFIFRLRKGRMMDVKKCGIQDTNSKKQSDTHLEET
# Assay Info: cell-based or functional assay
Property Label: EC50 (second run) (nM)
One number for each entry, in nM.

• PDL1-16E12 (LS/4A11) (antibody, V domains shown, also called PD-L1-16E12-4A11) VH: QMQLVQSGAEVKKPGSSVKVSCKASGGTFSSYAISWVRQAPGQGLEWMGRIIPILGIANYAQKFQGRVTITADKSTSTAYMELSSLRSEDTAVYYCAKPRDGYNLVAFDIWGQGTMVTVSS VL: QLVLTQPPSVSGAPGQRVIISCTGSSSNIGAGYDVHWYQQVPGTAPKLLIYGNNHRPSGVPDRFSGSKSGTSASLAITGLQAEDETDYYCQSYDNRLSGSLFGGGTKLTVL = 0.36

Parameters: items (list). Returns: EC50 (second run) for each item.
1. PDL1-16E12 (LS/4A7) (antibody, V domains shown, also called PD-L1-16E12-4A7) VH: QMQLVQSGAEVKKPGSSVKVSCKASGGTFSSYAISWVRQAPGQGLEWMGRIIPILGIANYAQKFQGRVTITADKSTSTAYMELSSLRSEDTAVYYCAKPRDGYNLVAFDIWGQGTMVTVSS VL: QLVLTQPPSVSGAPGQRVTISCTGSSSNIGAGYDVHWYQSLPGTVPKLLISGNSNRPPGVPDRFSGSKSGTSASLAITSLQSEDEADYYCHSYDGSLSEGVFGTGTKVTVL
2. PDL1-16E12 (LS/4H8) (antibody, V domains shown, also called PD-L1-16E12-4H8) VH: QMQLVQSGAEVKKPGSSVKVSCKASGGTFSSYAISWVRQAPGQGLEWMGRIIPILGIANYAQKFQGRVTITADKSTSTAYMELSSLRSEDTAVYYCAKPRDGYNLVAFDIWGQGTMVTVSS VL: QLVLTQPSSVSGAPGQRVTISCTGSSSNIGAGYDVHWYQQLPGTAPKLLIYGNSNRPSGVPDRFSGSKSGTSASLAITGLQAEDEADYYCQSYDSSLSGSGVFGTGTKVTVL

Found:
1: 0.4; 2: 0.31

Data provenance: patent US20190322750A1
